meta.source: patent US9497970B2

System: Boll Weevil (Anthonomus grandis)
Assay: B.3 Boll Weevil (Anthonomus grandis), microtiter plate insect diet
Assay type: in vivo
Details: 120 h, 800 ppm, sprayed onto insect diet, 5 days, in comparison with untreated controls, read-out: mortality (egg and larval)
Measure: mortality at 800 ppm

Structure string | Value measured
Cc1ccc(Cl)cc1NC(=S)N/N=C/c1ccc2c(ccc3c2ncn3-c2ccc(OC(F)(F)F)cc2)c1 | ≥ 75%
Cc1cccc(NC(=S)N/N=C/c2ccc3c(ccc4c3ncn4-c3ccc(OC(F)(F)F)cc3)c2)c1C | ≥ 75%
Cc1cccc(C)c1NC(=S)N/N=C/c1ccc2c(ccc3c(-c4ccc(OC(F)(F)F)cc4)n(C)nc32)c1 | ≥ 75%
